The reported measurements were obtained from PubChem BioAssay (NCI).

assay: NCI Yeast Anticancer Drug Screen. Data for the mlh1 rad18 strain (AID 175); conditions: S. cerevisiae mlh1 rad18 strain growth inhibition; at 50.0 µM; active compounds read high
This is part of a sample that, as a whole, favours compounds with a hit. Of some 79,000 tested, about 15% had one in any assay.
Listed below: growth inhibition values for each entry.
Reply with just the number (in %).

Example entries and their recorded answers appear below.
Compound: COc1ccc(C2(C(OC)OC)NC(=O)NC2=O)cc1 (stereo not given)
Display unit: %
growth inhibition: -8.85

Compound: CC1(C)C2CCC13CS(=O)(=O)N1O[C@]13C(=O)O2 (stereo not given in full)
Display unit: %
growth inhibition: 31.9

Compound: CCOC(=O)Cn1nnnc1N
Display unit: %
growth inhibition: 30.6

Compound: CC(=O)Nc1ccc(C(=O)NN2C(=O)C(Cl)C2c2ccc([N+](=O)[O-])cc2)cc1 (stereo not given)
Display unit: %
growth inhibition: 8.3

Compound: C/C(=C1/N=C(c2ccccc2)OC1=O)c1ccccc1
Display unit: %
growth inhibition: 80.5

Which measured growth inhibition value corresponds to O=C(CN1C(=O)c2ccccc2C1=O)NC1(C(=O)O)CCCC1 ?
-0.15

Recorded growth inhibition of COc1cc2c(c([N+](=O)[O-])c1)NC(=O)C(C)S2 (stereo not given) , please.
3.65

Find the recorded growth inhibition belonging to Nc1ccc(I)cn1 and report it.
-3.95

Given the compound CCCCC(O)(CCCC)CC(C)(C)C , what is its reported growth inhibition?
-1.35

Please look up its growth inhibition: BrCCCCOc1ccccc1
2.7

Item under review: CSC(=S)c1ccc(NSc2ccccc2[N+](=O)[O-])cc1 . Reported growth inhibition?
33.8
